Test: Plasma concentration in CD1 mouse at 18 mg/kg, iv administered as single dose measured after 5 mins
Type: ADME, organism-based
Parameters: dose 18 mg/kg, route intravenous
OBSERVATION_TYPE: concentration at 5 min (µM)
Form entry: value (µM) — number only.

Ask: Quick check: concentration at 5 min of CO[C@@H]([C@@H]1Cc2cc3cc(O[C@H]4C[C@@H](O[C@H]5C[C@@H](O)[C@H](O)[C@@H](C)O5)[C@H](O)[C@@H](C)O4)c(C)c(O)c3c(O)c2C(=O)[C@H]1O[C@H]1C[C@@H](O[C@H]2C[C@@H](O[C@H]3C[C@H](O)[C@H](O)[C@@H](C)O3)[C@H](O)[C@@H](C)O2)[C@H](O)[C@@H](C)O1)[C@@H](O)C(C)=O ?
Reply: 28

###

Experiment: Plasma concentration in CD1 mouse at 18 mg/kg, iv administered as single dose measured after 120 mins
Format: ADME, organism-based
Design: dose 18 mg/kg, route intravenous
OBSERVATION_TYPE: concentration at 2 h

Ask: Quick check: concentration at 2 h of CO[C@@H]([C@@H]1Cc2cc3cc(O[C@H]4C[C@@H](O[C@H]5C[C@@H](O)[C@H](O)[C@@H](C)O5)[C@H](O)[C@@H](C)O4)c(C)c(O)c3c(O)c2C(=O)[C@H]1O[C@H]1C[C@@H](O[C@H]2C[C@@H](O[C@H]3C[C@H](O)[C@H](O)[C@@H](C)O3)[C@H](O)[C@@H](C)O2)[C@H](O)[C@@H](C)O1)[C@@H](O)C(C)=O ?
Reply: < 100 nM

###

Assay: Toxicity in ip dosed CD1 mouse administered as single dose
Type: organism-based
Details: in vivo
OBSERVATION_TYPE: MTD
Param answer (str): number followed by unit.

Ask: Quick check: MTD of CO[C@@H]([C@@H]1Cc2cc3cc(O[C@H]4C[C@@H](O[C@H]5C[C@@H](O)[C@H](O)[C@@H](C)O5)[C@H](O)[C@@H](C)O4)c(C)c(O)c3c(O)c2C(=O)[C@H]1O[C@H]1C[C@@H](O[C@H]2C[C@@H](O[C@H]3C[C@H](O)[C@H](O)[C@@H](C)O3)[C@H](O)[C@@H](C)O2)[C@H](O)[C@@H](C)O1)[C@@H](O)C(C)=O ?
Reply: 200 mg/kg

###

Experiment: Plasma concentration in CD1 mouse at 1 mg/kg, iv administered as single dose measured after 30 mins
Assay type: ADME, organism-based
Set-up: dose 1 mg/kg, route intravenous
OBSERVATION_TYPE: concentration at 0.5 h (nM)
Form entry: value (nM) — number only.

Ask: Quick check: concentration at 0.5 h of CO[C@H](C(=O)[C@@H](O)[C@@H](C)O)[C@@H]1Cc2cc3cc(O[C@H]4C[C@@H](O[C@H]5C[C@@H](O)[C@H](O)[C@@H](C)O5)[C@H](O)[C@@H](C)O4)c(C)c(O)c3c(O)c2C(=O)[C@H]1O[C@H]1C[C@@H](O[C@H]2C[C@@H](O[C@H]3C[C@](C)(O)[C@H](O)[C@@H](C)O3)[C@@H](O)[C@@H](C)O2)[C@H](O)[C@@H](C)O1 [PLICAMYCIN] ?
Reply: 200

###

Assay: Plasma concentration in CD1 mouse at 1 mg/kg, iv administered as single dose measured after 120 mins
Type: ADME, organism-based
Set-up: dose 1 mg/kg, route intravenous
OBSERVATION_TYPE: concentration at 2 h

Ask: Quick check: concentration at 2 h of CO[C@H](C(=O)[C@@H](O)[C@@H](C)O)[C@@H]1Cc2cc3cc(O[C@H]4C[C@@H](O[C@H]5C[C@@H](O)[C@H](O)[C@@H](C)O5)[C@H](O)[C@@H](C)O4)c(C)c(O)c3c(O)c2C(=O)[C@H]1O[C@H]1C[C@@H](O[C@H]2C[C@@H](O[C@H]3C[C@](C)(O)[C@H](O)[C@@H](C)O3)[C@@H](O)[C@@H](C)O2)[C@H](O)[C@@H](C)O1 ?
Reply: < 100 nM
